Counter-ions that a name gives are not always drawn.
Parameter 'readout' = Ki; parameter 'system' = mu opioid receptor (Homo sapiens, UniProt P35372).
Sequence (P35372 whole entry): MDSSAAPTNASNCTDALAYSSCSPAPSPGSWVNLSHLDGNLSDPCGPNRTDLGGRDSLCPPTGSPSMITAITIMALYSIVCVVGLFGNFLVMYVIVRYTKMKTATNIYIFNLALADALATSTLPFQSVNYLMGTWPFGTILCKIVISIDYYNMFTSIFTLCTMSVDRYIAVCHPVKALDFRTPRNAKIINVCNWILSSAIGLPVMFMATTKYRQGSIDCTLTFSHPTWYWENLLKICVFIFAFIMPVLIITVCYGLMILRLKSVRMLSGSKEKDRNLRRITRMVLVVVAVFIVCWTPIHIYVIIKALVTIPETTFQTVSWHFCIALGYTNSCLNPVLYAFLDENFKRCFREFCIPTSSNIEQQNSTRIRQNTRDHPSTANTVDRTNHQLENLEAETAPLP
Answer shape: numeric part, then the unit.

[
  {
    "COMPOUND": "NC(=O)c1ccc(Oc2c(F)cc(CNCCC3CC3)cc2F)cc1O",
    "ENDPOINT_VALUE": "0.167 nM"
  }
]

List Ki for every entry below, keeping the order given.
1. NC(=O)c1ccc(Oc2c(F)cc(CNC3CCCCC3)cc2F)cc1O
2. NC(=O)c1ccc(Oc2ccc(CNCCC3CC3)cc2F)cc1O [Example 3A, hydrochloride salt]
3. NC(=O)c1ccc(Oc2ccc(CNC[C@H]3CCCO3)cc2F)cc1O
4. NC(=O)c1ccc(Oc2ccc(CNCC3CCOCC3)cc2F)cc1O
5. CC(C)CCNCc1ccc(Oc2ccc(C(N)=O)c(O)c2)c(F)c1 [Example 1A, hydrochloride salt]
6. CC(C)CCNCc1ccc(Oc2cccc(O)c2)c(F)c1.Cl [Example 2A, hydrochloride salt]

["0.0772 nM", "0.312 nM", "3.91 nM", "4.9 nM", "0.335 nM", "16.7 nM"]

Fill in Ki for record CC(C)CCNCc1cc(F)c(Oc2ccc(C(N)=O)c(O)c2)c(F)c1 0.094 nM

----------
# TARGET_SYSTEM: UniProt:P41145
pKi: −log10 of the molar value. Where a name gives a salt, the structure may show the parent alone.
Assign class by pKi: not lower than 9 means criterion met; lower than 9 means criterion not met.

[
  {
    "COMPOUND": "NC(=O)c1ccc(Oc2c(F)cc(CNC3Cc4ccccc4C3)cc2F)cc1O",
    "CATEGORY": "criterion met"
  },
  {
    "COMPOUND": "NC(=O)c1ccc(Oc2ccc(CNCCC3CC3)cc2F)cc1O [Example 3A, hydrochloride salt]",
    "CATEGORY": "criterion met"
  },
  {
    "COMPOUND": "CC(C)CCNCc1ccc(Oc2cccc(O)c2)c(F)c1.Cl [Example 2A, hydrochloride salt]",
    "CATEGORY": "criterion not met"
  },
  {
    "COMPOUND": "NC(=O)c1ccc(Oc2ccc(CNC[C@@H]3CCCO3)cc2F)cc1O",
    "CATEGORY": "criterion met"
  },
  {
    "COMPOUND": "NC(=O)c1ccc(Oc2c(F)cc(CNC[C@@H]3CCCO3)cc2F)cc1O",
    "CATEGORY": "criterion met"
  }
]

// inclusive: pKi at least 9? input: CC[C@@H](NCc1ccc(Oc2ccc(C(N)=O)c(O)c2)c(F)c1)c1ccccn1 criterion not met

pKi >= 9 for NC(=O)c1ccc(Oc2ccc(CNCC3(O)CCCCC3)cc2F)cc1O ? criterion met

----------
Values of Ki reported for kappa opioid receptor (Homo sapiens) appear below.
Counter-ions that a name gives are not always drawn.
Numbers only, in nM.

Use the examples below as a reference point.
[
  {
    "MOLECULE": "NC(=O)c1ccc(Oc2ccc(CNCC3CCOCC3)cc2F)cc1O",
    "Ki / nM": 1.56
  },
  {
    "MOLECULE": "CC(C)CCNCc1ccc(Oc2ccc(C(N)=O)c(O)c2)c(F)c1 [Example 1A, hydrochloride salt]",
    "Ki / nM": 0.652
  }
]

Okay, now this molecule:
Please indicate Ki recorded for NC(=O)c1ccc(Oc2ccc(CNC[C@H]3CCCO3)cc2F)cc1O 1.09
